- Test system: Bursaphelenchus xylophilus
- ASSAY EXPLANATION: Nematicidal activity against Bursaphelenchus xylophilus assessed as mortality at 200 mg/L after 48 hr relative to control
- Assay type: functional
Category | rule: reported Activity within range, see LOW = under 20%, MID = from 20% up to 30%, HIGH = 30% and over

INSERT INTO measurements (molecule, assigned_category) VALUES
  ('CC(C)(C)c1ccc(/C(=C/C(=O)NCCc2ccc(O)cc2)c2ccnc(Cl)c2)cc1', 'MID'),
  ('Cc1ccc(/C(=C/C(=O)NCCc2ccc(O)cc2)c2ccncc2)cc1', 'LOW'),
  ('Cc1ccc(/C(=C/C(=O)NCCc2ccc(O)cc2)c2ccncc2)cc1C', 'MID'),
  ('Cc1ccc(/C(=C/C(=O)NCCc2ccccc2)c2ccncc2)cc1', 'LOW'),
  ('COc1ccc(CCNC(=O)/C=C(/c2ccc(C(C)(C)C)cc2)c2ccnc(Cl)c2)cc1OC', 'HIGH'),
  ('CN(/C=C\c1ccccc1)C(=O)/C=C/c1ccccc1 [LANSIUMAMIDE B]', 'HIGH'),
  ('COc1ccc(CCNC(=O)/C=C(\c2ccnc(Cl)c2)c2ccc(C)cc2C)cc1OC', 'HIGH'),
  ('COc1ccc(CCNC(=O)/C=C(\c2ccncc2)c2ccc(C)c(C)c2)cc1OC', 'LOW'),
  ('Cc1ccc(/C(=C/C(=O)NCCc2ccccc2)c2ccnc(Cl)c2)cc1', 'MID'),
  ('COc1ccc(CCNC(=O)/C=C(/c2ccc(C)cc2)c2ccnc(Cl)c2)cc1OC', 'HIGH'),
  ('CCc1ccc(/C(=C/C(=O)NCCc2ccc(O)cc2)c2ccnc(Cl)c2)cc1', 'HIGH'),
  ('CCc1ccc(/C(=C/C(=O)NCCc2ccccc2)c2ccnc(Cl)c2)cc1', 'MID'),
  ('Cc1ccc(/C(=C/C(=O)NCCc2ccc(O)cc2)c2ccnc(Cl)c2)c(C)c1', 'HIGH'),
  ('Cc1ccc(/C(=C/C(=O)NCCc2ccccc2)c2ccnc(Cl)c2)cc1C', 'MID'),
  ('Cc1ccc(/C(=C/C(=O)NCCc2ccc(O)cc2)c2ccnc(Cl)c2)cc1', 'LOW'),
  ('COc1ccc(CCNC(=O)/C=C(\c2ccnc(Cl)c2)c2ccc(C)c(C)c2)cc1OC', 'LOW');
